Kindly state glycan array binding signal (z-score) for each of the entries shown.
Biological target: Fuc(a1-2)[GalNAc(a1-3)]Gal
Assay: glycan array binding signal (z-score within array); higher = stronger binding
Settings: glycan notation: IUPAC condensed, linker removed
The entries come from a sample that favours the strongest signals as a whole.
Give bare numbers.

{"columns": ["binder", "glycan array binding signal (z-score)"],
 "data": [
  ["Gal 2 (Canis lupus) (protein) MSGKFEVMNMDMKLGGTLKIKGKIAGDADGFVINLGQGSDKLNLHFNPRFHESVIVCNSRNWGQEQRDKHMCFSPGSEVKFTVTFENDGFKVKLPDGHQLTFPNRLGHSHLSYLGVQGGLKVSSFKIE", -0.339],
  ["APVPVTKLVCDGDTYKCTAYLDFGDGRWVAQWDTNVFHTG [PhoSpL (Pholiota squarrosa)]", -0.032]
]}

Here's the next entry for you.
Reported glycan array binding signal (z-score) ( Erv46-EDTA (Saccharomyces cerevisiae), P39727 (protein) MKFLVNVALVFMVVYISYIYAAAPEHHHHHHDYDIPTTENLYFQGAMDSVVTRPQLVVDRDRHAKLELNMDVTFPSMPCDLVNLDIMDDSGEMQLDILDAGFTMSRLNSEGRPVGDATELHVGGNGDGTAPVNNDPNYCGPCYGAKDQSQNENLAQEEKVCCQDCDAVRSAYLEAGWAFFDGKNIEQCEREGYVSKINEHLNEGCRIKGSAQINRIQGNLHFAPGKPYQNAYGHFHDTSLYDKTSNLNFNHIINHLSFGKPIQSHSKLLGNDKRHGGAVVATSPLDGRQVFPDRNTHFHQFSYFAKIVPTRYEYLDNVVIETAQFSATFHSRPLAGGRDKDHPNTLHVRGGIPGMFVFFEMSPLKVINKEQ ) = -0.619

Recorded values, source the supplement of paper PMC8728848.
